These measurements were taken from patent US20170121315A1.

Record set of IC50 for target or system MMP-16 (Homo sapiens).

Worked examples follow.
compound	outcome-measure	result
O=C(CC(CCn1nnc2ccccc2c1=O)C(=O)O)c1cc2cc(OCc3ccc(C(F)(F)F)cc3)ccc2o1 (racemic)	IC50	> 40 µM
CCCCCCCOc1ccc2c(C(=O)CC(CCn3nnc4ccccc4c3=O)C(=O)O)coc2c1 (racemic)	IC50	> 40 µM
O=C(O)[C@@H]1[C@@H](Cn2nnc3ccc(C(F)(F)F)cc3c2=O)CC[C@H]1C(=O)c1cc2cc(OCCc3ccccc3)ccc2o1 (single isomer, unassigned; enantiomer 2)	IC50	3 µM
NC(=O)c1cccc(COc2ccc3oc(C(=O)CC(CCn4nnc5ccccc5c4=O)C(=O)O)cc3c2)c1 (single isomer, unassigned; (+))	IC50	> 40 µM
O=C(CC(CCn1nnc2ccccc2c1=O)C(=O)O)c1cc2cc(OCc3cccc(Cl)c3)ccc2o1 (racemic)	IC50	> 40 µM
O=C(CC(CCn1nnc2ccccc2c1=O)C(=O)O)c1coc2cc(OCC3CCCC3)ccc12 (single isomer, unassigned; (+))	IC50	21 µM
CCCCCOc1ccc2c(C(=O)CC(CCn3nnc4ccccc4c3=O)C(=O)O)coc2c1 (racemic)	IC50	> 40 µM
O=C(CC(CCn1nnc2ccccc2c1=O)C(=O)O)c1cc2ccc(OCCCC3CCCCC3)cc2o1 (racemic)	IC50	> 40 µM
O=C(CC(CCn1nnc2ccccc2c1=O)C(=O)O)c1cc2ccc(OCC3CC3)cc2s1 (single isomer, unassigned; (+))	IC50	37 µM
O=C(CC(CCn1nnc2ccccc2c1=O)C(=O)O)c1cc2ccc(OCCc3ccccc3)cc2s1 (racemic)	IC50	28 µM

Quote IC50 with test system MMP-16 (Homo sapiens) for O=C(O)[C@H]1[C@H](Cn2nnc3ccc(C(F)(F)F)cc3c2=O)CC[C@@H]1C(=O)c1cc2cc(OCCc3ccccc3)ccc2o1 (racemic)
4.9 µM

Quote IC50 with test system MMP-16 (Homo sapiens) for O=C(CC(CCn1nnc2ccccc2c1=O)C(=O)O)c1cc2cc(OCc3ccccc3)ccc2o1 (single isomer, unassigned; (+))
> 40 µM

Quote IC50 with test system MMP-16 (Homo sapiens) for CCCCCCCOc1ccc2oc(C(=O)CC(CCn3nnc4ccccc4c3=O)C(=O)O)cc2c1 (racemic)
> 40 µM

###

Quick reference: pIC50 of the listed items.
- system-under-test: human macrophage elastase (HME/hMMP-12) (Homo sapiens)
- Sequence (P39900 106-470): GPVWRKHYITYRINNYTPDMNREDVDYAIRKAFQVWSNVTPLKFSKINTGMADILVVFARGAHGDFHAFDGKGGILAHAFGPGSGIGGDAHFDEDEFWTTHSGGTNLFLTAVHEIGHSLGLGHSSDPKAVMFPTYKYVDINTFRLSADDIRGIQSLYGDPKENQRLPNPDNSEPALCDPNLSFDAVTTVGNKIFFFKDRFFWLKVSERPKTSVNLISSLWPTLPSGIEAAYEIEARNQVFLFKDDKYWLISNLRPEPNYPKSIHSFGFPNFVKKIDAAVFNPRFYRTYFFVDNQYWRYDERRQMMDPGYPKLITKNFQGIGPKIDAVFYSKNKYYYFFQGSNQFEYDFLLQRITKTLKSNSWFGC
- assay: In vitro HME inhibition test (standard or high-sensitivity)
- measurement-parameters: in some cases mean values, rounded to two significant figures
On this scale, pIC50 is minus log10 of a concentration expressed in M (mol/L).

compound	outcome-measure	measured-number
O=C(CC(CCn1nnc2ccccc2c1=O)C(=O)O)c1cc2cc(OCCc3ccccc3Cl)ccc2o1 (racemic)	pIC50	8.59
O=C(CC(CCn1nnc2ccccc2c1=O)C(=O)O)c1cc2cc(OCC3CCCC3)ccc2o1 (racemic) [Example 16]	pIC50	7.62
CCCCCCOc1ccc2cc(C(=O)CC(CCn3nnc4ccccc4c3=O)C(=O)O)oc2c1 (racemic) [Example 64]	pIC50	8.54
CCCCCOc1ccc2cc(C(=O)CC(CCn3nnc4ccccc4c3=O)C(=O)O)oc2c1 (racemic) [Example 55]	pIC50	8.43

Quote pIC50 with test system human macrophage elastase (HME/hMMP-12) (Homo sapiens) for O=C(CC(CCn1nnc2ccccc2c1=O)C(=O)O)c1coc2cc(OCc3ccc(Cl)c(Cl)c3)ccc12 (single isomer, unassigned) [Example 94]
9.09

Quote pIC50 with test system human macrophage elastase (HME/hMMP-12) (Homo sapiens) for CC(C)CCCOc1ccc2oc(C(=O)CC(CCn3nnc4ccccc4c3=O)C(=O)O)cc2c1 (racemic)
8.34

Quote pIC50 with test system human macrophage elastase (HME/hMMP-12) (Homo sapiens) for CCCCCCCOc1ccc2c(C(=O)CC(CCn3nnc4ccccc4c3=O)C(=O)O)coc2c1 (racemic) [Example 101]
9.28
